Biological target: T1, MutS (Escherichia coli, UniProt P23909 1-853)
T1 sequence: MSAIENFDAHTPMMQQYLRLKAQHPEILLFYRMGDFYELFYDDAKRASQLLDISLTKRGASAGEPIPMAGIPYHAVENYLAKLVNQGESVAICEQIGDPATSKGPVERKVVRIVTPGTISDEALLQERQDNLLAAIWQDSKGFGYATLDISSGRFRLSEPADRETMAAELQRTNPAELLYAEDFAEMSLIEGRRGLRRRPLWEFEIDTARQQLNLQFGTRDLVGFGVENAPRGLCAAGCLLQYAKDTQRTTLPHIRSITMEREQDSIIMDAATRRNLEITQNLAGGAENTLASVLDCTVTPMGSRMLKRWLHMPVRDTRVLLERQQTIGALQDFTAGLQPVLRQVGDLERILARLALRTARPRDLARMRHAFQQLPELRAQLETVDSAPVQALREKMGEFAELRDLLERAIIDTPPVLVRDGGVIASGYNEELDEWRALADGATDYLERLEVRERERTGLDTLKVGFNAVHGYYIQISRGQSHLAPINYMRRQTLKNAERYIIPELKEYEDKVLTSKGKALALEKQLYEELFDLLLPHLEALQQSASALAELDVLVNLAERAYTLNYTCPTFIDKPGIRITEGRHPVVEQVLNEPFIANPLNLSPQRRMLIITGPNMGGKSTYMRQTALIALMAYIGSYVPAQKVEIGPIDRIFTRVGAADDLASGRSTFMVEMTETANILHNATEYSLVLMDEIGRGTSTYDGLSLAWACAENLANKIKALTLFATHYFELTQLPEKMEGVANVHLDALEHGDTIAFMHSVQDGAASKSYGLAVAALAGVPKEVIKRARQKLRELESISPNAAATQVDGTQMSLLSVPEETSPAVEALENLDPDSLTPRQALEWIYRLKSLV
Assay: FRET equilibrium titration
Measured Kd accompanies every entry in the list below.
Answer in µM, number only, no unit symbol.

Consider the following illustrative entries.
binder="30-AG (dsDNA) DNA 1: AACTGCCAAGCACCAGTGTCAGCGTCGTAT DNA 2: ATACGACGCTGACACTGGTGCGTGGCAGTT" quantity_measured=Kd reading=0.319
binder="30-AC (dsDNA) DNA 1: AACTGCCAAGCACCAGTGTCAGCGTCGTAT DNA 2: ATACGACGCTGACACTGGTGCCTGGCAGTT" quantity_measured=Kd reading=0.154
binder="30-2ΔT (dsDNA) DNA 1: AACTGCCAGGCACCAGTGTCAGCGTCGTAT DNA 2: ATACGACGCTGACACTGGTGCCTTTGGCAGTT" quantity_measured=Kd reading=0.089
binder="30-TG (dsDNA) DNA 1: AACTGCCATGCACCAGTGTCAGCGTCGTAT DNA 2: ATACGACGCTGACACTGGTGCGTGGCAGTT" quantity_measured=Kd reading=0.08
binder="30-AA (dsDNA) DNA 1: AACTGCCAAGCACCAGTGTCAGCGTCGTAT DNA 2: ATACGACGCTGACACTGGTGCATGGCAGTT" quantity_measured=Kd reading=0.214

Shift focus to the following entry.
(Q) Given the binder 30-CT (dsDNA) DNA 1: AACTGCCACGCACCAGTGTCAGCGTCGTAT DNA 2: ATACGACGCTGACACTGGTGCTTGGCAGTT , what is its reported Kd?
(A) 0.324
